Where do these numbers come from? They come from ChEMBL document CHEMBL4406886.

For each record, write down the corresponding IC50.
Just the number please, in nM, no unit attached.

Challenge: Quote Vascular endothelial growth factor receptor 2 (Homo sapiens) IC50 for entry O=C(Nc1ccc(Nc2ccc([N+](=O)[O-])c3ncnc(O)c23)cc1)c1ccccc1 .
Response given: 735

Challenge: Quote Vascular endothelial growth factor receptor 2 (Homo sapiens) IC50 for entry O=C(Nc1ccc(Nc2ccc([N+](=O)[O-])c3ncnc(O)c23)cc1)c1ccc(Cl)cc1 .
Response given: 363

Challenge: Quote Vascular endothelial growth factor receptor 2 (Homo sapiens) IC50 for entry O=C(Nc1ccc(Nc2ccc([N+](=O)[O-])c3ncnc(O)c23)cc1)c1ccc(F)cc1 .
Response given: 64.8

====

Test system: A549
METHOD_DESCRIPTION: Antiproliferative activity against human A549 cells expressing EGFR assessed as cell growth inhibition measured after 48 hrs by MTT assay
Type: functional, cell-based
CONDITION_SET: A549, 48 h
METRIC: IC50

Challenge: Output IC50 of O=C(Nc1ccc(Nc2ccc([N+](=O)[O-])c3ncnc(O)c23)cc1)c1ccc(Cl)cc1
Response given: 83 µM

Challenge: Output IC50 of Cc1cccc(C(=O)Nc2cccc(Nc3ccc([N+](=O)[O-])c4ncnc(O)c34)c2)c1
Response given: > 100 µM

Challenge: Output IC50 of O=C(Nc1ccc(Nc2ccc([N+](=O)[O-])c3ncnc(O)c23)cc1)Nc1cc(C(F)(F)F)ccc1Cl
Response given: > 100 µM

Challenge: Output IC50 of O=C(Nc1cccc(Nc2ccc([N+](=O)[O-])c3ncnc(O)c23)c1)c1ccc(F)cc1
Response given: 95 µM

Challenge: Output IC50 of O=C(Nc1ccc(Nc2ccc([N+](=O)[O-])c3ncnc(O)c23)cc1)c1ccc(F)cc1
Response given: 69 µM

Challenge: Output IC50 of O=C(Nc1ccc(Nc2ccc([N+](=O)[O-])c3ncnc(O)c23)cc1)c1ccccc1
Response given: 87.4 µM

Challenge: Output IC50 of COc1cccc(C(=O)Nc2ccc(Nc3ccc([N+](=O)[O-])c4ncnc(O)c34)cc2)c1
Response given: > 100 µM

Challenge: Output IC50 of O=C(Nc1cccc(Nc2ccc([N+](=O)[O-])c3ncnc(O)c23)c1)c1ccccc1F
Response given: > 100 µM

Challenge: Output IC50 of Cc1ccc(C(=O)Nc2ccc(Nc3ccc([N+](=O)[O-])c4ncnc(O)c34)cc2)cc1
Response given: > 100 µM

Challenge: Output IC50 of Cc1cccc(C(=O)Nc2ccc(Nc3ccc([N+](=O)[O-])c4ncnc(O)c34)cc2)c1
Response given: > 100 µM

Challenge: Output IC50 of O=C(Nc1cccc(Nc2ccc([N+](=O)[O-])c3ncnc(O)c23)c1)c1ccccc1Cl
Response given: > 100 µM

Challenge: Output IC50 of O=C(Nc1cccc(Nc2ccc([N+](=O)[O-])c3ncnc(O)c23)c1)c1ccccc1
Response given: > 100 µM

Challenge: Output IC50 of Cc1ccccc1C(=O)Nc1ccc(Nc2ccc([N+](=O)[O-])c3ncnc(O)c23)cc1
Response given: 91.6 µM

Challenge: Output IC50 of Cc1ccccc1C(=O)Nc1cccc(Nc2ccc([N+](=O)[O-])c3ncnc(O)c23)c1
Response given: > 100 µM

Challenge: Output IC50 of O=C(Nc1cccc(Nc2ccc([N+](=O)[O-])c3ncnc(O)c23)c1)c1cccc(Cl)c1
Response given: > 100 µM

Challenge: Output IC50 of O=C(Nc1ccc(Nc2ccc([N+](=O)[O-])c3ncnc(O)c23)cc1)c1cccc(Cl)c1
Response given: > 100 µM

Challenge: Output IC50 of COc1ccccc1C(=O)Nc1cccc(Nc2ccc([N+](=O)[O-])c3ncnc(O)c23)c1
Response given: > 100 µM

====

SYSTEM: UniProt P35968
CONDITION_SET: at 1 µM
Description: Inhibition of VEGFR2 (unknown origin) at 1 uM using poly (Glu,Tyr) 4:1 as substrate measured after 1 hr in presence of ATP by spectrophotometric analysis relative to control
METRIC: inhibition (%)
Just the number please, in %, no unit attached.

Challenge: Output inhibition of Cc1cccc(C(=O)Nc2ccc(Nc3ccc([N+](=O)[O-])c4ncnc(O)c34)cc2)c1
Response given: 58.2

Challenge: Output inhibition of Cc1ccc(C(=O)Nc2ccc(Nc3ccc([N+](=O)[O-])c4ncnc(O)c34)cc2)cc1
Response given: 83.7

Challenge: Output inhibition of O=C(Nc1ccc(Nc2ccc([N+](=O)[O-])c3ncnc(O)c23)cc1)c1cccc(F)c1
Response given: 69.4

Challenge: Output inhibition of O=C(Nc1ccc(Nc2ccc([N+](=O)[O-])c3ncnc(O)c23)cc1)c1ccccc1
Response given: 92.4

Challenge: Output inhibition of O=C(Nc1cccc(Nc2ccc([N+](=O)[O-])c3ncnc(O)c23)c1)c1cccc(Cl)c1
Response given: 29.2

Challenge: Output inhibition of O=C(Nc1ccc(Nc2ccc([N+](=O)[O-])c3ncnc(O)c23)cc1)c1ccc(Cl)cc1
Response given: 97.9

Challenge: Output inhibition of Cc1ccc(C(=O)Nc2cccc(Nc3ccc([N+](=O)[O-])c4ncnc(O)c34)c2)cc1
Response given: 32.7

Challenge: Output inhibition of O=C(Nc1ccc(Nc2ccc([N+](=O)[O-])c3ncnc(O)c23)cc1)Nc1cc(C(F)(F)F)ccc1Cl
Response given: 102

Challenge: Output inhibition of O=C(Nc1cccc(Nc2ccc([N+](=O)[O-])c3ncnc(O)c23)c1)c1ccccc1F
Response given: 35.8

Challenge: Output inhibition of COc1cccc(C(=O)Nc2ccc(Nc3ccc([N+](=O)[O-])c4ncnc(O)c34)cc2)c1
Response given: 47.6

Challenge: Output inhibition of O=C(Nc1ccc(Nc2ccc([N+](=O)[O-])c3ncnc(O)c23)cc1)c1ccc(F)cc1
Response given: 102

Challenge: Output inhibition of O=C(Nc1ccc(Nc2ccc([N+](=O)[O-])c3ncnc(O)c23)cc1)c1ccccc1Cl
Response given: 76.9

Challenge: Output inhibition of O=C(Nc1cccc(Nc2ccc([N+](=O)[O-])c3ncnc(O)c23)c1)c1ccccc1Cl
Response given: 30.1

Challenge: Output inhibition of O=C(Nc1cccc(Nc2ccc([N+](=O)[O-])c3ncnc(O)c23)c1)c1cccc(F)c1
Response given: 38.1

Challenge: Output inhibition of Cc1ccccc1C(=O)Nc1cccc(Nc2ccc([N+](=O)[O-])c3ncnc(O)c23)c1
Response given: 21.6

Challenge: Output inhibition of O=C(Nc1cccc(Nc2ccc([N+](=O)[O-])c3ncnc(O)c23)c1)c1ccc(Cl)cc1
Response given: 38.5

Challenge: Output inhibition of Cc1cccc(C(=O)Nc2cccc(Nc3ccc([N+](=O)[O-])c4ncnc(O)c34)c2)c1
Response given: 18

Challenge: Output inhibition of O=C(Nc1cccc(Nc2ccc([N+](=O)[O-])c3ncnc(O)c23)c1)c1ccc(F)cc1
Response given: 41.9

Challenge: Output inhibition of COc1ccccc1C(=O)Nc1cccc(Nc2ccc([N+](=O)[O-])c3ncnc(O)c23)c1
Response given: 26.9

Challenge: Output inhibition of COc1ccccc1C(=O)Nc1ccc(Nc2ccc([N+](=O)[O-])c3ncnc(O)c23)cc1
Response given: 60.3

Challenge: Output inhibition of O=C(Nc1ccc(Nc2ccc([N+](=O)[O-])c3ncnc(O)c23)cc1)c1ccccc1F
Response given: 73.8

Challenge: Output inhibition of Cc1ccccc1C(=O)Nc1ccc(Nc2ccc([N+](=O)[O-])c3ncnc(O)c23)cc1
Response given: 65.8

Challenge: Output inhibition of O=C(Nc1ccc(Nc2ccc([N+](=O)[O-])c3ncnc(O)c23)cc1)c1cccc(Cl)c1
Response given: 63.2

Challenge: Output inhibition of O=C(Nc1cccc(Nc2ccc([N+](=O)[O-])c3ncnc(O)c23)c1)c1ccccc1
Response given: 37.8
